Provide the reported IC50 of each item.
target.entity: MMP-1 (Homo sapiens, UniProt P03956)
Sequence (P03956 100-469, species assumed): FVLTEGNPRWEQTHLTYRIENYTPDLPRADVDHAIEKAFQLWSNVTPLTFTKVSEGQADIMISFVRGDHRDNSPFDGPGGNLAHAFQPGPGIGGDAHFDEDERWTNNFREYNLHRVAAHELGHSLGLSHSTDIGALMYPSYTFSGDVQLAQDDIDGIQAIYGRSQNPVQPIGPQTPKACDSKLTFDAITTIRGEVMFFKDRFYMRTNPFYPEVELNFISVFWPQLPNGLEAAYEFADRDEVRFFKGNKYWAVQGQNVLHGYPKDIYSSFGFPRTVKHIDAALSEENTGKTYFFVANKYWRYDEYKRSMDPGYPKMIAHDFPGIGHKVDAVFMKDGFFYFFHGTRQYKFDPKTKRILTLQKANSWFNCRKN
assay.explanation: MMP-1 inhibitory action (Type I collagen Activity Measurement kit, FITC-labeled collagen type I)
Assay type: biochemical
assay.conditions: Experimental Example 2; read-out: IC50 MMP1

Fill in: IC50 of CC1[C@H](c2ccccc2)[C@]1(NS(=O)(=O)c1ccc(-c2ccc3nonc3c2)s1)C(=O)O (some centres unmarked) is ___
≥ 1000 nM

Thanks! And C[C@]1(c2ccccc2)C[C@@]1(NS(=O)(=O)c1ccc(-c2cc(O)c(F)c(F)c2)s1)C(=O)O ?
≥ 1000 nM

Thanks! And CC1[C@H](c2ccccc2)[C@]1(NS(=O)(=O)N1CCN(c2ccc(Cl)cc2F)CC1)C(=O)O (some centres unmarked) ?
≥ 1000 nM

Thanks! And CC(C)N1CCN(c2ccc(S(=O)(=O)N[C@@]3(C(=O)O)C[C@]3(C)c3ccccc3)s2)CC1 ?
≥ 10000 nM

Thanks! And O=C(O)C1(NS(=O)(=O)c2ccc(-c3cc(C(F)(F)F)on3)s2)CC1(CN1CCCC1)c1ccccc1 (centres unmarked) ?
≥ 10000 nM

Thanks! And COc1cnn(-c2ccc(S(=O)(=O)N[C@@]3(C(=O)O)C(C)[C@@H]3c3ccccc3)s2)c1 (some centres unmarked) ?
< 100 nM

Thanks! And O=C(O)C1(NS(=O)(=O)c2cn3cc(-c4ccccc4)nc3s2)CC1c1ccccc1 (centres unmarked) ?
≥ 10000 nM

Thanks! And CC1[C@@H](c2ccccc2)[C@@]1(NS(=O)(=O)c1ccc(-c2cc(C(F)(F)F)on2)s1)C(=O)O (some centres unmarked) ?
< 1000 nM

Thanks! And C[C@]1(c2ccccc2)C[C@@]1(NS(=O)(=O)c1ccc(-c2ccncc2)s1)C(=O)O ?
≥ 1000 nM

Thanks! And CC1[C@H](c2ccccc2)[C@]1(NS(=O)(=O)c1ccc(-n2cc(C(C)(C)O)cn2)s1)C(=O)O (some centres unmarked) ?
< 1000 nM

Thanks! And CC1[C@H](c2ccccc2)[C@]1(NS(=O)(=O)c1ccc(-c2ccc(Cl)c(N)c2)s1)C(=O)O (some centres unmarked) ?
< 1000 nM

Thanks! And O=C(O)C1(NS(=O)(=O)c2ccc(-c3cc(C(F)(F)F)on3)s2)CC1(CN1CCCCC1)c1ccccc1 (centres unmarked) ?
≥ 10000 nM

Thanks! And CC1[C@H](c2ccccc2)[C@]1(NS(=O)(=O)c1ccc(-n2ccc(C(F)(F)F)n2)s1)C(=O)O (some centres unmarked) ?
≥ 1000 nM

Thanks! And COCCCC1(c2ccccc2)CC1(NS(=O)(=O)c1ccc(-c2cc(C(F)(F)F)on2)s1)C(=O)O (centres unmarked) ?
< 1000 nM

Thanks! And O=C(NC1CC1)OCC1(c2ccccc2)CC1(NS(=O)(=O)c1ccc(-c2cc(C(F)(F)F)on2)s1)C(=O)O (centres unmarked) ?
≥ 1000 nM

Thanks! And O=C(NO)C1(NS(=O)(=O)c2ccc(OCc3ccc(Cl)cc3Cl)cc2)C2CCCc3ccccc3C21 (centres unmarked) ?
≥ 10000 nM

Thanks! And CN(CCO)C(=O)OCC1(c2ccccc2)CC1(NS(=O)(=O)c1ccc(-c2cc(C(F)(F)F)on2)s1)C(=O)O (centres unmarked) ?
≥ 1000 nM
